Numbers sourced from patent US8840891.

# system-under-test: T1, TSHR coated onto tubes (human, UniProt P16473 21-764, limits assumed)
# T1 construct: whole entry named; also called TSHR coated tubes; thyrotropin receptor
# protocol-details: TSHR coated tubes, competitor 125I-5C9 IgG
property: % inhib of 125I-5C9 IgG binding at 0.1 µg/mL (%)
Report as a plain number; the unit % is understood.

Ask: What value of % inhib of 125I-5C9 IgG binding at 0.1 µg/mL has been reported for the following binder? 17D2 IgG (antibody, V domains shown) VH: DVQIQQSGPELVKPGASVKMSCKASGYSFTAYNMHWVKQTHGKSLEWIGYIDPYSGATSYHQKFKGKATLTVDKSSSTAYMRLNSLTSEDSAVYYCARRWDWDPYAMDYWGQGTSVTVSS VL: SVEMSQSPAILSVSPGERISFSCRASQSIGTSIHWYQQRTNGSPRLLIKYASASISGIPSRFSGSGSGTDFTLSINSVESEDIADYYCQQSNSWPLTFGAGTKLELKR
Result: 11
